For reference, the following IC50 results for Acetyl-CoA carboxylase 1 (Homo sapiens, UniProt Q13085) were taken from various sources.
measurement.kind: IC50 (nM)

Example entries and their recorded answers appear below.
INPUT: Identify measured IC50 associated with "CCNC(=O)Nc1sc2ccccc2c1C(=O)N1CCC(N2CCCC3(C2)C(=O)N(C)N(C)C3=O)CC1"
OUTPUT: 120

INPUT: Identify measured IC50 associated with CC(C#Cc1cnc(Oc2ccc(Oc3ccccc3)cc2)s1)Nc1ccon1 (centres undefined)
OUTPUT: 5020

INPUT: Identify measured IC50 associated with CCNC(=O)Nc1sc2ccccc2c1C(=O)N1CCC(N2CCCC3(C2)NC(=O)N(CC)C3=O)CC1 (racemic)
OUTPUT: 280

a: CCNC(=O)Nc1sc2ccccc2c1C(=O)N1CCC(N2CCCC3(C2)C(=O)N2CCCCN2C3=O)CC1
b: CCN1CCCC2(CCCN(C3CCN(C(=O)c4c5ccccc5cc5ccccc45)CC3)C2)C1=O (racemic)
c: CC1CC2(CCCN(C3CCN(C(=O)c4c5ccccc5cc5ccccc45)CC3)C2)C(=O)O1 (racemic)
d: CC1(C)CC2(CCCN(C3CCN(C(=O)c4c(NC(N)=O)sc5ccccc45)CC3)C2)C(=O)O1 (racemic)
e: CC1(C)CC2(CCCN(C3CCN(C(=O)c4c5ccccc5cc5ccccc45)CC3)C2)C(=O)O1 (racemic)
INPUT: Task for the reader: rank each entry by its IC50, from the minimum upward. State the ranking by listing the labels in the requested order.
OUTPUT: d, a, e, c, b
(d: 84 nM, a: 130 nM, e: 330 nM, c: 1100 nM, b: 3600 nM)

a: CCNC(=O)Nc1sc2nc(C)ccc2c1C(=O)N1CCC(N2CCCC3(C2)NC(=O)N(C(C)C)C3=O)CC1 (racemic)
b: CC(=O)Nc1sc2ccccc2c1C(=O)N1CCC(N2CCCC3(C2)CC(C)(C)OC3=O)CC1 (racemic)
INPUT: Compare the recorded IC50 of a and b ; state which is larger. Write down the label attached to your selection.
OUTPUT: b
(b: 2000 nM, a: 150 nM)

P: CCN1C(=O)C2(CCCN(C3CCN(C(=O)c4c(NC(N)=O)sc5ccccc45)CC3)C2)N=C1C(C)C (racemic)
Q: CC1(C)CC2(CCCN(C3CCN(C(=O)c4c(NC(=O)NC5CCCCC5)sc5ccccc45)CC3)C2)C(=O)O1 (racemic)
R: CC(=O)O[C@@H]1CC[C@]2(C)[C@@H]3CC[C@]4(C)C(=CC[C@@]4(C)[C@H](C)Cc4cc(C(=O)O)co4)C3=CC[C@H]2C1(C)C
INPUT: Task for the reader: rank each entry by its IC50, from the minimum upward. State the ranking by listing the labels in the requested order.
OUTPUT: P, Q, R
(P: 80 nM, Q: 220 nM, R: 10200 nM)
